These entries and their values trace back to the supplement of paper PMC6757056.

B1: library; a variant is named by its letters at N, in order (parent)
chain: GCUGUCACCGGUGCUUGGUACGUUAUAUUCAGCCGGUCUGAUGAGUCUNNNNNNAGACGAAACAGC

Variants of: B1
protocol: normalized RNA/DNA level without ligand (relative to sTRSVctl = 100) (log10 (% of sTRSVctl)); HEK293T overexpressing SLC46A1; higher = less ribozyme self-cleavage, higher mRNA level
conditions.used: without (6R,S)-folinic acid; ligand present: no
The entries below come with measured normalized RNA/DNA level without ligand (log10) values attached.
No unit in the answer, only the number.

{"chain": "GCUGUCACCGGUGCUUGGUACGUUAUAUUCAGCCGGUCUGAUGAGUCUCAGGUUAGACGAAACAGC [CAGGUU]", "experimental.value": 2}
{"chain": "GCUGUCACCGGUGCUUGGUACGUUAUAUUCAGCCGGUCUGAUGAGUCUGACGCGAGACGAAACAGC [GACGCG]", "experimental.value": 2}

INPUT: Looking for the measured normalized RNA/DNA level without ligand (log10) of GCUGUCACCGGUGCUUGGUACGUUAUAUUCAGCCGGUCUGAUGAGUCUCAUUCUAGACGAAACAGC [CAUUCU] , can you help?
OUTPUT: 2.02

INPUT: Looking for the measured normalized RNA/DNA level without ligand (log10) of GCUGUCACCGGUGCUUGGUACGUUAUAUUCAGCCGGUCUGAUGAGUCUAUCAUCAGACGAAACAGC [AUCAUC] , can you help?
OUTPUT: 2.01

INPUT: Looking for the measured normalized RNA/DNA level without ligand (log10) of GCUGUCACCGGUGCUUGGUACGUUAUAUUCAGCCGGUCUGAUGAGUCUAAACAAAGACGAAACAGC [AAACAA] , can you help?
OUTPUT: 1.97
